This section presents binders with their documented EC50 (aequorin functional assay) values.
- Target Or Test System: human MCH-1R (human, UniProt Q99705 1-353)
- Sequence (Q99705 whole entry, form in doubt): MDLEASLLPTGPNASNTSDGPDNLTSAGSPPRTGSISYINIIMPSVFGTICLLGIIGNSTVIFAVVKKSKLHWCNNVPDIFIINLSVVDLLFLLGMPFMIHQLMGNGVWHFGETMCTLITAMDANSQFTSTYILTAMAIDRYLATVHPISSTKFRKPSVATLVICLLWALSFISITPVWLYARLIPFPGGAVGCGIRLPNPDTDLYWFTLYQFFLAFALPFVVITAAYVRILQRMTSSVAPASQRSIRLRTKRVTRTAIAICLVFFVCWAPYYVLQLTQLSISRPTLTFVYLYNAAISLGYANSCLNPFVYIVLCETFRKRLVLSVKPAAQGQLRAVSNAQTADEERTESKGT
- Assay Explanation: cell-based or functional assay
Bridges are numbered along the chain shown (N, C = ends). [ ]: non-standard residue; d: D form.
Reported Metric: EC50 (aequorin functional assay) (nM)

Ac-CMLGRVYRPC-NH2 (disulfide 1-10; not fully specified, positions numbered as in hMCH; also called ?Arg^6) [SEQ. ID. NO. 3] ... 300
RCMLGXVYRPC (Harg^11 (homoarginine), also called Harg^11) [SEQ. ID. NO. 24] ... 1200
Ac-RCALGRVYRPC-NH2 (disulfide 2-11; SMILES CC(=O)N[C@@H](CCCNC(=N)N)C(=O)N[C@H]1CSSC[C@@H](C(N)=O)NC(=O)[C@@H]2CCCN2C(=O)[C@H](CCCNC(=N)N)NC(=O)[C@H](Cc2ccc(O)cc2)NC(=O)[C@H](C(C)C)NC(=O)[C@H](CCCNC(=N)N)NC(=O)CNC(=O)[C@H](CC(C)C)NC(=O)[C@H](C)NC1=O, also called Ala^8) [SEQ. ID. NO. 4] ... 4100
Ac-RCMLARVYRPC-NH2 (disulfide 2-11; SMILES CSCC[C@@H]1NC(=O)[C@@H](NC(=O)[C@H](CCCNC(=N)N)NC(C)=O)CSSC[C@@H](C(N)=O)NC(=O)[C@@H]2CCCN2C(=O)[C@H](CCCNC(=N)N)NC(=O)[C@H](Cc2ccc(O)cc2)NC(=O)[C@H](C(C)C)NC(=O)[C@H](CCCNC(=N)N)NC(=O)[C@H](C)NC(=O)[C@H](CC(C)C)NC1=O, also called Ala^10) [SEQ. ID. NO. 7] ... 31
Ac-RCML[dN]RVYRPC-NH2 (disulfide 2-11 (inferred), also called D-Asn^10) [SEQ. ID. NO. 18] ... 3000
Ac-RCMLGRVYRPC-NH2 (disulfide 2-11 (inferred), positions numbered 6-16 as in hMCH) [truncated form of human MCH, SEQ. ID. NO. 2] ... 20

From: patent US20040147432A1
